Source listed as ChEMBL document CHEMBL4842376.

Measured pIC50 of individual entries
# Test system: MDA-MB-231
# Assay Info: cells
# Format: functional, cell-based
# Measurement Context: Homo sapiens, MDA-MB-231, 72 h
# Description: Antiproliferative activity against human MDA-MB-231 cells assessed as inhibition of cell growth measured after 72 hrs by MTT assay
pIC50: −log10 of the molar value.
Result Type: pIC50

> print(dat)
                                item.smiles  result.type  readout.qualifier  value.reported
1  Nc1nc2cc(-c3nn(CCCCCCCCC(=O)NO)c4ncnc(N)c34)ccc2o1        pIC50                  =            4.52
2  Nc1nc2cc(-c3nn(CCCCCC(=O)NO)c4ncnc(N)c34)ccc2o1        pIC50                  =            4.72
3  Nc1ncnc2c1c(-c1cnc3[nH]ccc3c1)nn2CCCCC(=O)NO        pIC50                  <            4.30
4  Nc1ncnc2c1c(-c1cnc3[nH]ccc3c1)nn2CC(=O)NO        pIC50                  <            3.82
5  Nc1nc2cc(-c3nn(CCCC(=O)NO)c4ncnc(N)c34)ccc2o1        pIC50                  =            4.71
6  Nc1ncnc2c1c(-c1cnc3[nH]ccc3c1)nn2CCCCCCC(=O)NO        pIC50                  =            4.42
7  Nc1ncnc2c1c(-c1cnc3[nH]ccc3c1)nn2CCCCCCCCC(=O)NO        pIC50                  =            4.96
8  Nc1nc2cc(-c3nn(CCCCCCC(=O)NO)c4ncnc(N)c34)ccc2o1        pIC50                  =            5.07
9  Nc1ncnc2c1c(-c1cnc3[nH]ccc3c1)nn2CCCCCCCCCC(=O)NO        pIC50                  =            4.99

---

# Test Target: Histone deacetylase 1 (Homo sapiens)
# Sequence (Q13547 whole entry): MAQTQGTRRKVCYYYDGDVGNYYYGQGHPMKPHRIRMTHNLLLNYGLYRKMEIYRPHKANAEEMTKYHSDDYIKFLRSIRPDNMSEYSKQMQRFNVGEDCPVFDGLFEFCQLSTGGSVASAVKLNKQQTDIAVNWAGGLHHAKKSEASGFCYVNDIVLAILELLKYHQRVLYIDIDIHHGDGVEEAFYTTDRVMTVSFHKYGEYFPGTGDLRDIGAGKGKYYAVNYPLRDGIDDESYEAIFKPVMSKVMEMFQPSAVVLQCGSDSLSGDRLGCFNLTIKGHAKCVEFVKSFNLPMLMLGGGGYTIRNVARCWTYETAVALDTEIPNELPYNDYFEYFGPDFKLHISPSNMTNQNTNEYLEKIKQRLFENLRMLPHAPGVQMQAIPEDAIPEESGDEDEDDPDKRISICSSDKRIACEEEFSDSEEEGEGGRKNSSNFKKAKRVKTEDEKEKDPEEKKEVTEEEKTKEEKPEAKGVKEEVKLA
Measured IC50 of individual entries
Result Type: IC50 (nM)

> print(dat)
                                item.smiles  value.reported
1  Nc1ncnc2c1c(-c1cnc3[nH]ccc3c1)nn2CCCCCCCCC(=O)NO              20
2  Nc1nc2cc(-c3nn(CCCCCCC(=O)NO)c4ncnc(N)c34)ccc2o1             3.1

---

# System: Bel-7402
# Assay Info: Antiproliferative activity against human Bel-7402 cells assessed as inhibition of cell growth measured after 72 hrs by MTT assay
# Assay type: functional, cell-based
# Measurement Context: Bel-7402, 72 h
Result Type: IC50 (µM)

> print(dat)
                                    molecule  result.type  readout.qualifier  value.reported
 1  Nc1nc2cc(-c3nn(CCCCCCCC(=O)NO)c4ncnc(N)c34)ccc2o1         IC50                  =            13.2
 2  Nc1nc2cc(-c3nn(CCCCC(=O)NO)c4ncnc(N)c34)ccc2o1         IC50                  =             2.4
 3  Nc1ncnc2c1c(-c1cnc3[nH]ccc3c1)nn2CCCCCCC(=O)NO         IC50                  =            30.8
 4  Nc1ncnc2c1c(-c1cnc3[nH]ccc3c1)nn2CCCCCCCCCC(=O)NO         IC50                  =            42.1
 5  Nc1nc2cc(-c3nn(CCCCCCCCCC(=O)NO)c4ncnc(N)c34)ccc2o1         IC50                  >              50
 6  Nc1nc2cc(-c3nn(CCCCCCC(=O)NO)c4ncnc(N)c34)ccc2o1         IC50                  >              50
 7  O=C(CCCCCCC(=O)Nc1ccccc1)NO [VORINOSTAT]         IC50                  =            27.4
 8  Nc1nc2cc(-c3nn(CCCCCCCCC(=O)NO)c4ncnc(N)c34)ccc2o1         IC50                  >             100
 9  Nc1nc2cc(-c3nn(CCCCCC(=O)NO)c4ncnc(N)c34)ccc2o1         IC50                  =            2.03
10  CC(C)n1nc(-c2ccc3oc(N)nc3c2)c2c(N)ncnc21 [SAPANISERTIB]         IC50                  >             100
11  Nc1ncnc2c1c(-c1cnc3[nH]ccc3c1)nn2CCCCCCCC(=O)NO         IC50                  =            17.4
12  Nc1ncnc2c1c(-c1cnc3[nH]ccc3c1)nn2CCCCCCCCC(=O)NO         IC50                  =            18.9

---

# Test system: Huh-7
# Assay Info: cells
# Format: functional, cell-based
# Measurement Context: Homo sapiens, Huh-7, 72 h
# Description: Antiproliferative activity against human Huh-7 cells assessed as inhibition of cell growth measured after 72 hrs by MTT assay
pIC50: −log10 of the molar value.
Measured pIC50 of individual entries
Result Type: pIC50

> print(dat)
                                 item.smiles  result.type  readout.qualifier  value.reported
 1  CC(C)n1nc(-c2ccc3oc(N)nc3c2)c2c(N)ncnc21        pIC50                  =            8.15
 2  Nc1nc2cc(-c3nn(CCCCCC(=O)NO)c4ncnc(N)c34)ccc2o1        pIC50                  =            5.00
 3  Nc1ncnc2c1c(-c1cnc3[nH]ccc3c1)nn2CCCCCCCC(=O)NO        pIC50                  =            4.63
 4  Nc1ncnc2c1c(-c1cnc3[nH]ccc3c1)nn2CCCCCCCCC(=O)NO        pIC50                  =            5.13
 5  Nc1nc2cc(-c3nn(CCCCCCCC(=O)NO)c4ncnc(N)c34)ccc2o1        pIC50                  =            5.56
 6  Nc1nc2cc(-c3nn(CCCCCCCCCC(=O)NO)c4ncnc(N)c34)ccc2o1        pIC50                  =            4.38
 7  Nc1ncnc2c1c(-c1cnc3[nH]ccc3c1)nn2CCCCCCC(=O)NO        pIC50                  =            4.29
 8  Nc1nc2cc(-c3nn(CCCCC(=O)NO)c4ncnc(N)c34)ccc2o1        pIC50                  =            5.04
 9  Nc1ncnc2c1c(-c1cnc3[nH]ccc3c1)nn2CCCCCC(=O)NO        pIC50                  <            4.00
10  Nc1nc2cc(-c3nn(CCCCCCC(=O)NO)c4ncnc(N)c34)ccc2o1        pIC50                  =            5.24
